# tested_on: HLA-B*39:01
# assay_text: IEDB peptide-MHC binding, purified MHC/competitive/fluorescence; filed as Kd, often an IC50 or EC50 that approximates it; bounds were set here for any values at or beyond the usual limits of such assays
# condition_set: source organism: Encephalitozoon cuniculi GB-M1
pKd: −log10 of the molar value.
parameter_measured: pKd

Exam item: Find the recorded pKd belonging to EAYCALLCK and report it.
Marked response: ≤ 4.70

---

# tested_on: HLA-A*11:01
# assay_text: IEDB peptide-MHC binding, purified MHC/competitive/radioactivity; filed as Kd, often an IC50 or EC50 that approximates it; bounds were set here for any values at or beyond the usual limits of such assays
# condition_set: source organism: Lassa virus Josiah
parameter_measured: pKd
API: returns pKd as number; meaning -log10 of concentration in mol/L.

Exam item: I have this sequence here, ENAVWDQYK , and I need its recorded pKd.
Marked response: 5.18

---

# tested_on: HLA-B*54:01
# assay_text: IEDB peptide-MHC binding, purified MHC/competitive/radioactivity; filed as Kd, often an IC50 or EC50 that approximates it; bounds were set here for any values at or beyond the usual limits of such assays
# condition_set: source organism: Hepatitis C virus (isolate 1)
parameter_measured: Kd

Exam item: Lookup: Kd / HLA-B*54:01 / HSKKKCDEL
Marked response: ≥ 78.1 µM

---

# tested_on: HLA-A*26:01
# assay_text: IEDB peptide-MHC binding, purified MHC/competitive/radioactivity; filed as Kd, often an IC50 or EC50 that approximates it; bounds were set here for any values at or beyond the usual limits of such assays
# condition_set: source organism: Mammarenavirus whitewaterense
parameter_measured: Kd

Exam item: Observed Kd on HLA-A*26:01 for ATTNAHCALL , please.
Marked response: ≥ 69.7 µM

---

# tested_on: HLA-A*26:01
# assay_text: IEDB peptide-MHC binding, purified MHC/competitive/fluorescence; filed as Kd, often an IC50 or EC50 that approximates it; bounds were set here for any values at or beyond the usual limits of such assays
# condition_set: source organism: Vibrio cholerae 2740-80
parameter_measured: Kd

Exam item: Param readout = Kd; param system = HLA-A*26:01; param query = LAVFPAMFW ; response: value
Marked response: ≥ 20 µM

---

# tested_on: HLA-A*02:03
# assay_text: IEDB peptide-MHC binding, purified MHC/competitive/radioactivity; filed as Kd, often an IC50 or EC50 that approximates it; bounds were set here for any values at or beyond the usual limits of such assays
# condition_set: source organism: SARS coronavirus Tor2
Listing: log10 Kd of selected sequences
In our notation, the value equals log10 of Kd in nM.

Worked set:
polymer_sequence | observed_measurement
TQWSLFFFV | 2.73
FLAHLQWFA | -0.68
AQFLYLYAL | 0.79

Exam item: Give log10 Kd (HLA-A*02:03) of the following sequence: LLLEWLAEV
Marked response: -0.20

Exam item: Item ALIARCWYL with HLA-A*02:03 - log10 Kd?
Marked response: 1.23

Exam item: Hi! What's the reported log10 Kd for MLFTKFFYL on HLA-A*02:03?
Marked response: 1.24

Exam item: Find the measured log10 Kd: item FVVFLLVTL , target or system HLA-A*02:03.
Marked response: 3.21

Exam item: Request body: readout log10 Kd, system HLA-A*02:03, query NLAPHLLLIV . Return the value.
Marked response: 0.03

Exam item: Request - read-out log10 Kd | tested on HLA-A*02:03 | sequence LMSFTILCL
Marked response: 1.21
